Target: OsSMF1 (Oryza sativa, UniProt Q6ZLB0 1-436)
Sequence: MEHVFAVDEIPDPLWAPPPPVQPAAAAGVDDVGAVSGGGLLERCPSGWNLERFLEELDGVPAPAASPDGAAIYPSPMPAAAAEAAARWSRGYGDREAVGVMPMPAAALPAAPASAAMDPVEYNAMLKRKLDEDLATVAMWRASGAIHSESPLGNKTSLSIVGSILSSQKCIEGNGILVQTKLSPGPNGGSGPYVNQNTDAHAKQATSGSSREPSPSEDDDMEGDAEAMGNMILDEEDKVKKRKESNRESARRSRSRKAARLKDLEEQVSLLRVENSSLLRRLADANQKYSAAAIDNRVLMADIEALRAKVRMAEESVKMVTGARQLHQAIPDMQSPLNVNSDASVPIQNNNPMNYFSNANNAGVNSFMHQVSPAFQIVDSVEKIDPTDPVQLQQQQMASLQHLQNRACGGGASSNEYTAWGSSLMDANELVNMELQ
Assay: protein-binding microarray (RPBM); PBS, 2% BSA, 51.3 ng/ul salmon testes DNA, 50 uM zinc acetate, 200 nM TF, 25 C, 1 h; high values mean tight binding
Settings: protein: recombinant; tags: N-terminal polyhistidine and DsRed monomer fusion (pET32a); chain copies: 2; label: CyDye5-dUTP incorporated in the synthesized complementary strand; 3' TTTTT single-stranded linker to array surface; dsDNA, one strand shown
The full ranking holds about 39,000 sequences; the median of “fluorescence intensity (a.u.)” is about 4,300, and the highest 2% start at about 39,000. This excerpt belongs to a sample that is enriched for the highest values.
MEASURE: binding signal

Below are worked cases with known answers.
CGCCATCGCCAACGCCAACGCCTCCGCGGACTCCATTGTCCGGAGTCACCTAGTGCAG
3650 fluorescence intensity (a.u.)
CTGCTGCCGTCGCAGAAGGTGCTGACATGGCCAGGGGTGGCGGAGTCACCTAGTGCAG
45300 fluorescence intensity (a.u.)
CCGTCGTGCTGGGTGTGGCGCCGGAGAAGAAGGCGCAGCACGGAGTCACCTAGTGCAG
41700 fluorescence intensity (a.u.)
GTGCCTGACAATCCTACAGGTGAAATCAACCCCTTTCATCCGGAGTCACCTAGTGCAG
40800 fluorescence intensity (a.u.)

Give binding signal; test system OsSMF1 (Oryza sativa, UniProt Q6ZLB0 1-436); sequence "CCGGTCGGTACTAGTTCGGGGCGTGACACATGGTAGTTATCGGAGTCACCTAGTGCAG"
4000 fluorescence intensity (a.u.)

Give binding signal; test system OsSMF1 (Oryza sativa, UniProt Q6ZLB0 1-436); sequence "TGATACATTACTCAAGGAAACAGTCACACAGTCTATCACGCGGAGTCACCTAGTGCAG"
3200 fluorescence intensity (a.u.)

Give binding signal; test system OsSMF1 (Oryza sativa, UniProt Q6ZLB0 1-436); sequence "ACCAGTGCGCCACTGCCAGCGCAGCACCCGCCCGGTTTAACGGAGTCACCTAGTGCAG"
3240 fluorescence intensity (a.u.)

Give binding signal; test system OsSMF1 (Oryza sativa, UniProt Q6ZLB0 1-436); sequence "GCCGGCGACGCTGCCGCCGTCACCACTACCGCTGCCGCGGCGGAGTCACCTAGTGCAG"
4140 fluorescence intensity (a.u.)

Give binding signal; test system OsSMF1 (Oryza sativa, UniProt Q6ZLB0 1-436); sequence "GCGCGCCGTCGTGGCGCTGGCGGCCACCACGGTGGTCACCCGGAGTCACCTAGTGCAG"
4120 fluorescence intensity (a.u.)
